- Test system: UO-31 renal
- experiment-description: NCI tumour cell line growth inhibition, 48 h
Recorded GI50 by entry

Illustrative cases are given below, each with its answer.
{"compound": "CN(C)CCCNc1nc2ccccc2c2c(=O)c3cc(F)ccc3sc12", "GI50": "1.48 µM"}
{"compound": "CC(c1ccccc1)N1C(=O)CSC1=S (stereo not given)", "GI50": "5.73 µM"}
{"compound": "O=C(c1ccc(Oc2ccccc2)cc1Cl)c1c[nH]c2ncnc(N[C@@H]3CC[C@@H](CO)OC3)c12", "GI50": "0.479 µM"}
{"compound": "COc1ccc(/C=C/C(=O)c2c(O)c(C)c(O)c3c2OC2=CC(O)=C(C(C)=O)C(=O)[C@]23C)cc1", "GI50": "3.45 µM"}

Next:
-- ask // Input: COc1cc(C2CC(c3ccc(SC)cc3)=NN2C(C)=O)cc(OC)c1OC (stereo not given) . Output its GI50 only.
-- reply 15.9 µM
